These data points were gathered from paper PMC7305236.

Readings of Supplementary Table 5: EC50 of β-arrestin-1 recruitment to ACKR3 for the listed binders
molecular target: atypical chemokine receptor ACKR3 (formerly CXCR7) (human) (UniProt P25106)
Sequence (P25106 whole entry): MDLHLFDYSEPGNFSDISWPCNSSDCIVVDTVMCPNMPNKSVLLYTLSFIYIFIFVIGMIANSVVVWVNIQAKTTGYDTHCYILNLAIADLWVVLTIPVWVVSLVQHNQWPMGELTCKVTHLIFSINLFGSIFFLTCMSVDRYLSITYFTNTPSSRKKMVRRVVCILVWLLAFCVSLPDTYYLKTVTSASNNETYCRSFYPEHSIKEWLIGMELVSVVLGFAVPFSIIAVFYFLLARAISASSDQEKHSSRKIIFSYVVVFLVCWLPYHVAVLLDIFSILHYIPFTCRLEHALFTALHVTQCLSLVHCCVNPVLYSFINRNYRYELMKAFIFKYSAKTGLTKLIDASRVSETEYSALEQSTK
No end group written: not given here.
The answer is to be given in nM; state only the numeric part.

FGGWMRRKR-NH2; 7.34
FGGFMRRKR-NH2; 1.12
FGGWMRRV-NH2 [second-generation peptide FGGWMRRV]; 10.5
FGGFMRRF-NH2 [second-generation peptide FGGFMRRF]; 11
FGGWMRRVR-NH2; 6.16

Field Supplementary Table 5: EC50 of β-arrestin-1 recruitment to ACKR3 (entry FGGWMRRFR-NH2 ) reads 19.1

According to the records, this binder FGGFMRRFR-NH2 displays Supplementary Table 5: EC50 of β-arrestin-1 recruitment to ACKR3 of 16.3

What the record says about FGGFMRRVR-NH2 : Supplementary Table 5: EC50 of β-arrestin-1 recruitment to ACKR3 is 3.53

Summary for this binder, FGGWMRRK-NH2 [second-generation peptide FGGWMRRK] : Supplementary Table 5: EC50 of β-arrestin-1 recruitment to ACKR3 is 4.39

Looking up FGGWMRRF-NH2 [second-generation peptide FGGWMRRF] , I see its Supplementary Table 5: EC50 of β-arrestin-1 recruitment to ACKR3 listed as 19.1
